Hey, just so you know, these numbers are from paper PMC7694037.

# Test system: Vero-76 cells
# methodSummary: Cytotoxicity against Vero-76 cells (crystal violet staining)
# Format: cell-based, Cercopithecus Aethiops
# runParameters: CC50 Vero-76 / IC50 L. tropica promastigotes
measurementKind: S.I. L. tropica

Q. Reported S.I. L. tropica, molecule Cc1ccc(NCCC2CCCN3CCCCC23)c2c(=O)c3ccccc3sc12 (stereo not shown) [Compound 2] : ____
A. 3.7

Q. Reported S.I. L. tropica, molecule C[N+]12CCCC[C@@H]1[C@H](C=C1c3ccccc3CCc3ccccc31)CCC2.[I-] (stereo partly shown) [Compound 20] : ____
A. 12.5

Q. Reported S.I. L. tropica, molecule CCN(CC)CCNc1ccc(C)c2sc3ccccc3c(=O)c12 [Lucanthone] : ____
A. 4.8

Q. Reported S.I. L. tropica, molecule Cc1ccc(NC[C@@H]2CCCN3CCCC[C@H]23)c2c(=O)c3ccccc3sc12 [Compound 1] : ____
A. 7.0

Q. Reported S.I. L. tropica, molecule C[N+]12CCCC[C@@H]1[C@H](C=C1c3ccccc3-c3ccccc31)CCC2 (stereo partly shown) [Compound 19] : ____
A. 7.9

Q. Reported S.I. L. tropica, molecule C(=C1c2ccccc2-c2ccccc21)[C@@H]1CCCN2CCCC[C@H]12 [Compound 17, 9-(quinolizidinylmethylidene)fluorene] : ____
A. 23.9

Q. Reported S.I. L. tropica, molecule Nc1ccc(NCCC2CCCN3CCCCC23)c2c(=O)c3ccccc3sc12 (stereo not shown) [Compound 14] : ____
A. 16.2
